Where do these numbers come from? They come from patent US20220162215A1.

- Tested on: HeLa MKYP cells
- Assay overview: Human mitophagy assay (HeLa MKYP, mtKeima FACS, FCCP/oligomycin)
- Format: cell-based
- Details: Table 3 Supplement B; listed as EP-0037882; read-out: Mitophagy EC50 (HeLa mKeima assay)
Endpoint label: pEC50
In plain terms, pEC50 is the concentration in mol/L turned into minus its base-10 logarithm.

Using the record for C[C@H]1CCc2ccccc2[C@@H]1Nc1ncnc2[nH]c(C(F)(F)F)cc12 , report its pEC50.
6.23

====

- Tested on: HeLa MKYP cells
- Assay overview: Toxicity / cell death measured by DAPI staining (take-up)
- Format: cell-based
- Details: Table 3; 50 μM
- Procedure: H2O2 treatment was performed as a control for cell death as measured by DAPI staining. Briefly, HeLa MKYP cells were plated at 10,000 cells/well in 96 well plates along with compounds at various concentrations. Following 16 hrs of incubation, cells were treated with 1 uM FCCP/oligomycin for 6 hours, then analyzed via FACS for the presence of mitochondria in lysosomes (as determined by an emissions spectrum shift from the pH-sensitive mtKeima tag).
Listed compounds paired with reported Toxicity (% positive for DAPI takeup @ 50 μM)
Write the value in % as a bare number.

Take a look at these entries with their results.
• C[C@H](Nc1ncnc2[nH]c(C3CC3)nc12)c1ccccc1 = 27.6
• O[C@@H]1Cc2ccccc2[C@@H]1Nc1ncnc2[nH]c(C(F)(F)F)cc12 = 35.6

Please state recorded Toxicity (% positive for DAPI takeup @ 50 μM) (tested on HeLa MKYP cells) of C[C@@H]1CCc2ccccc2[C@H]1Nc1ncnc2[nH]c(C(F)(F)F)cc12
23.8

Entry CC[C@@H]1CCc2ccccc2[C@@H]1Nc1ncnc2[nH]c(C(F)(F)F)cc12 , system HeLa MKYP cells: what Toxicity (% positive for DAPI takeup @ 50 μM) was measured?
8.7
